test system: MRC5; assay: Cytotoxicity against human MRC5 cells assessed as cell growth inhibition after 72 hrs by MTS assay; type: cell-based; conditions: MRC5, 72 h
property: IC50 (µM)
Field: numeric (µM). Do not append units.

| smiles str | numeric result |
| --- | --- |
| Cc1c(OC2CCN(C)CC2)ccc2cc(NC(=O)Nc3ccccc3)c(=O)oc12 | 3.6 |

For this compound ( COc1cccc(-c2cc(NC(=O)Nc3cc4ccc(OC5CCN(C)CC5)c(C)c4oc3=O)ccc2OC)c1 ), measured IC50 is 4.3
